Source: paper PMC5941314

- Study System: T1, Ube2W (UniProt Q96B02 1-151)
- T1 construct: Ube2W, ubiquitin-conjugating enzyme E2 W; source: E. coli Rossetta2 (DE3), purified (ion exchange, SEC)
- Test: ITC; ZNRF1 construct (10–30 µM) in the cell, E2 in the syringe; 25°C; 20 mM sodium phosphate pH 8.0, 150 mM NaCl; single site model
- Measurement Parameters: both partners purified
Observation Type: pKd
// pKd: -log10(molar conc.)

Task item: Any idea what its pKd is? The binder is ZNRF1^CTD (C-terminal domain of ZNRF1, residues 139–227) (domain or fragment, UniProt Q8ND25 139-227, looked up, ZNRF1, RING E3 ubiquitin ligase, residues 139-227 of the full-length protein (ZnF and RING domains); also called ZNRF1 C-terminal domain; ZRNF1^CTD; source: E. coli Rossetta2 (DE3), purified (HisTrap, SEC)) SHSGFKCPICSKSVASDEMEMHFIMCLSKPRLSYNDDVLTKDAGECVICLEELLQGDTIARLPCLCIYHKSCIDSWFEVNRSCPEHPAD
Reply: 5.96
